Data origin, for the record: patent US20260193376A1

target: human plasma-derived Factor IXa (human, UniProt P00740 47-191; P00740 227-461); experiment: cell-based or functional assay
Sequence (P00740 47-191, chain 1 of 2): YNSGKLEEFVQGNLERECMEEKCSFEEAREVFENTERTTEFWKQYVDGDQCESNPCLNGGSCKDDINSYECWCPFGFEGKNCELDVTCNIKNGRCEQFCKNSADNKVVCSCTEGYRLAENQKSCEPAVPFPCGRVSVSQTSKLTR
Sequence (P00740 227-461, chain 2 of 2): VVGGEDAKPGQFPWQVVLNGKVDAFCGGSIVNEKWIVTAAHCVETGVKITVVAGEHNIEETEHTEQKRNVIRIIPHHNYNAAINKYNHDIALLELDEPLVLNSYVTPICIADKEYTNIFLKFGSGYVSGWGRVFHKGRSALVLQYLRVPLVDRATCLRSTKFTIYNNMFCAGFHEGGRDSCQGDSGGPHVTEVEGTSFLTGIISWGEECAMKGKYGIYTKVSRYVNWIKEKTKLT
Assay Endpoint: Stimulation Index, FXa generation assay, 800 nM OA antibody

Input line: Find the measured Stimulation Index, FXa generation assay, 800 nM OA antibody of one-armed (OA) mAb11-1073 (antibody, V domains shown) VH: EVQLVESGGGLVQPGRSLRLSCAASGFTFHDYAMHWVRQVPGKGLEWVSGISWKGDIGGYVDSVKGRFTISRDNAKNSLYLQMNSLRAEDTALYYCAKSYGSGSFYNAFDSWGQGTLVTVSS VL: DIQMTQSPSTLSASVGDRVTITCRASQSISSWLAWYQQKPGKAPKFLIYKASKLDRGTPSRFSGSGSGTEFTLTISSLQPDDFATYYCLEYSSYIRTFGQGTKVEIK and report it.
Output line: 6150 fold
